// reported pIC50 per item
# assayed-system: Sodium-dependent dopamine transporter (Rattus norvegicus)
# Sequence (P23977 whole entry): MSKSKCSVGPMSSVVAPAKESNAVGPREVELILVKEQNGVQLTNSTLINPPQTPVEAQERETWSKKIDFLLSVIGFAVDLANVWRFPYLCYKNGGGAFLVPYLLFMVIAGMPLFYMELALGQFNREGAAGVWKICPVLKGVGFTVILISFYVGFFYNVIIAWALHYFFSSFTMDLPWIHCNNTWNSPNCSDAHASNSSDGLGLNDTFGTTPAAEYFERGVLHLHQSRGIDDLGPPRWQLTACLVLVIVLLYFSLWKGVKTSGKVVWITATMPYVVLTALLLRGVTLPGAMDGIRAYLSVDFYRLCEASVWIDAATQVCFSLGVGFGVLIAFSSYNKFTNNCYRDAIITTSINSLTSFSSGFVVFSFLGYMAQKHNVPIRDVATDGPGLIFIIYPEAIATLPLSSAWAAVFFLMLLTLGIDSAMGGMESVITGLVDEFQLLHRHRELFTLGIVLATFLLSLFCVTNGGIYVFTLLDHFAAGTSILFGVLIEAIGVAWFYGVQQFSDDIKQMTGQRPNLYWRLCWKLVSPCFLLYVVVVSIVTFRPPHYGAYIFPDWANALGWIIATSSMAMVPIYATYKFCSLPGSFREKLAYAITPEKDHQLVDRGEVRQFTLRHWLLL
# test-name: Inhibition of [3H]WIN-35428 binding to rat brain dopamine transporter
Convention used: pIC50 is expressed as -log10 of the molar concentration.

For orientation, consider the following solved cases.
{"molecule": "OC1CC(C(c2ccccc2)c2ccccc2)OCC1NCc1ccccc1 (single isomer, unassigned)", "pIC50": 6.22}
{"molecule": "COc1ccc(CN[C@@H]2C[C@@H](C(c3ccccc3)c3ccccc3)OC[C@H]2O)cc1", "pIC50": 6.11}
{"molecule": "OC1COC(C(c2ccccc2)c2ccccc2)CC1NCc1ccccc1 (single isomer, unassigned)", "pIC50": 5.90}
{"molecule": "OC1CC(C(c2ccccc2)c2ccccc2)OCC1NCCc1ccc(F)cc1 (single isomer, unassigned)", "pIC50": 6.35}
{"molecule": "COc1ccc(CNC2CC(C(c3ccccc3)c3ccccc3)OCC2O)cc1 (single isomer, unassigned)", "pIC50": 5.43}

For the molecule shown here, `O[C@@H]1CO[C@H](C(c2ccccc2)c2ccccc2)C[C@H]1NCc1ccccc1` , give the reported pIC50.
5.33

Quick one: `O[C@@H]1C[C@@H](C(c2ccccc2)c2ccccc2)OC[C@H]1NCCc1ccc(F)cc1`
5.98

Next record, please: `O[C@@H]1C[C@@H](C(c2ccccc2)c2ccccc2)OC[C@H]1NCc1ccc(F)cc1`
6.51

* * *

# assayed-system: Monoamine transporters; serotonin & dopamine (Rattus norvegicus) (UniProt P31652+P23977)
# Sequence (P23977 whole entry, looked up): as the sequence (P23977 whole entry) above
# Sequence (P31652 whole entry, looked up): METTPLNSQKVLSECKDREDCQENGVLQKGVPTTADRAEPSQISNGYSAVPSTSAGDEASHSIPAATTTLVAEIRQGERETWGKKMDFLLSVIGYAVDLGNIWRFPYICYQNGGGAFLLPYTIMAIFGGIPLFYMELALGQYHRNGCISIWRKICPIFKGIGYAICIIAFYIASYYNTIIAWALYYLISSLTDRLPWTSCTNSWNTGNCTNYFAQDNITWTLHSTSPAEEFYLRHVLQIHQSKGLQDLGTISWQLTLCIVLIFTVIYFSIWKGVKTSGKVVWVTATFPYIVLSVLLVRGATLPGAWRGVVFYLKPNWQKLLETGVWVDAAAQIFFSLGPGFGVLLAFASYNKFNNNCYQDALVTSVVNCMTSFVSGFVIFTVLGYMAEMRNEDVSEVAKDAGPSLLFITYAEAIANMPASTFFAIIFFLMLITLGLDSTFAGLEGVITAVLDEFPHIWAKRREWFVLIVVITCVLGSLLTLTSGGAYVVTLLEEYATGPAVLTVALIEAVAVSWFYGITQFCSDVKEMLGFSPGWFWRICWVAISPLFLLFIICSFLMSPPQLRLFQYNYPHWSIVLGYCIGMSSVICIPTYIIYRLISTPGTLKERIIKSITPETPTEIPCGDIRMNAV
# test-name: Ratio between Dopamine transporter and Serotonin transporter uptake
# Format: protein assay
Overview of reported Ratio across a group of compounds:
Form field (numeric): enter value without unit.

{"compound": "O[C@@H]1CO[C@H](C(c2ccccc2)c2ccccc2)C[C@H]1NCc1ccccc1", "assayed-system": "Monoamine transporters; serotonin & dopamine (Rattus norvegicus) (UniProt P31652+P23977)", "Ratio": 0.2}
{"compound": "COc1ccc(CNC2CC(C(c3ccccc3)c3ccccc3)OCC2O)cc1 (single isomer, unassigned)", "assayed-system": "Monoamine transporters; serotonin & dopamine (Rattus norvegicus) (UniProt P31652+P23977)", "Ratio": 0.58}
{"compound": "COc1ccc(CN[C@@H]2C[C@@H](C(c3ccccc3)c3ccccc3)OC[C@H]2O)cc1", "assayed-system": "Monoamine transporters; serotonin & dopamine (Rattus norvegicus) (UniProt P31652+P23977)", "Ratio": 0.77}
{"compound": "O[C@@H]1C[C@@H](C(c2ccccc2)c2ccccc2)OC[C@H]1NCCc1ccc(F)cc1", "assayed-system": "Monoamine transporters; serotonin & dopamine (Rattus norvegicus) (UniProt P31652+P23977)", "Ratio": 0.099}

Report Ratio for `COc1cc(CN[C@@H]2CO[C@H](C(c3ccccc3)c3ccccc3)C[C@H]2O)cc(OC)c1` please.
5.1

Also, `COc1ccc(CN[C@@H]2CO[C@H](C(c3ccccc3)c3ccccc3)C[C@H]2O)c(OC)c1` please.
25

Request: `O[C@@H]1C[C@@H](C(c2ccccc2)c2ccccc2)OC[C@H]1NCc1ccc(F)cc1`
0.21

Next up: OC1CC(C(c2ccccc2)c2ccccc2)OCC1NCCc1ccc(F)cc1 (single isomer, unassigned)
0.061

Now consider OC1COC(C(c2ccccc2)c2ccccc2)CC1NCc1ccccc1 (single isomer, unassigned) .
0.18

Now consider OC1CC(C(c2ccccc2)c2ccccc2)OCC1NCc1ccc(F)cc1 (single isomer, unassigned) .
0.065

* * *

# assayed-system: Norepinephrine transporter (Rattus norvegicus, UniProt Q9WTR4)
# Sequence (Q9WTR4 whole entry): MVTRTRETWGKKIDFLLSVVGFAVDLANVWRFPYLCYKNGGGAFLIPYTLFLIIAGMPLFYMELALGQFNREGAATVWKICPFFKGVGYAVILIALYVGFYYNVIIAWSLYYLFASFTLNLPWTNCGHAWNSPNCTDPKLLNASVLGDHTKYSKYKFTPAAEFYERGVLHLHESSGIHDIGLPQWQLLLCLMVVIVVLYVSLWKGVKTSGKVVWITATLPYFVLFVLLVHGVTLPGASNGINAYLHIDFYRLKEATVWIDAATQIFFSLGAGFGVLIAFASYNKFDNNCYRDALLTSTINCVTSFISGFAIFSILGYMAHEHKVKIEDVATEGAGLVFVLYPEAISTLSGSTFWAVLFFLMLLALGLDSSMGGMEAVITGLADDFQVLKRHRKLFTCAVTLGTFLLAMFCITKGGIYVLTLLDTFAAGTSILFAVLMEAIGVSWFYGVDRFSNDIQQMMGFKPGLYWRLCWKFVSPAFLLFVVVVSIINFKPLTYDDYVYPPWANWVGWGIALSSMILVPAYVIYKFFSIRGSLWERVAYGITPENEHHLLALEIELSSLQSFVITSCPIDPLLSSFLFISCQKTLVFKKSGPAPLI
# test-name: Inhibition of rat brain Norepinephrine transporter as accumulation of [3H]-NE
readout-type: pKi
// scale note: pKi = -log10(conc_M); give the bare number

The cases that follow already have their pKi on record.
{"molecule": "COc1ccc(CNC2COC(C(c3ccccc3)c3ccccc3)CC2O)cc1 (single isomer, unassigned)", "readout-type": "pKi", "number": 6.39}
{"molecule": "OC1COC(C(c2ccccc2)c2ccccc2)CC1NCc1ccccc1 (single isomer, unassigned)", "readout-type": "pKi", "number": 5.54}
{"molecule": "COc1ccc(CN[C@@H]2C[C@@H](C(c3ccccc3)c3ccccc3)OC[C@H]2O)cc1", "readout-type": "pKi", "number": 6.16}
{"molecule": "COc1ccc(CNC2CC(C(c3ccccc3)c3ccccc3)OCC2O)cc1 (single isomer, unassigned)", "readout-type": "pKi", "number": 5.77}
{"molecule": "O[C@@H]1C[C@@H](C(c2ccccc2)c2ccccc2)OC[C@H]1NCc1ccc(F)cc1", "readout-type": "pKi", "number": 7.91}
{"molecule": "COc1ccc(CN[C@@H]2CO[C@H](C(c3ccccc3)c3ccccc3)C[C@H]2O)c(OC)c1", "readout-type": "pKi", "number": 7.02}
{"molecule": "OC1CC(C(c2ccccc2)c2ccccc2)OCC1NCc1ccc(F)cc1 (single isomer, unassigned)", "readout-type": "pKi", "number": 5.98}
{"molecule": "COc1ccc(CN[C@@H]2CO[C@H](C(c3ccccc3)c3ccccc3)C[C@H]2O)cc1", "readout-type": "pKi", "number": 7.80}
{"molecule": "OC1CC(C(c2ccccc2)c2ccccc2)OCC1NCCc1ccc(F)cc1 (single isomer, unassigned)", "readout-type": "pKi", "number": 7.15}
{"molecule": "COc1cc(CN[C@@H]2CO[C@H](C(c3ccccc3)c3ccccc3)C[C@H]2O)cc(OC)c1", "readout-type": "pKi", "number": 7.00}

Find pKi (Norepinephrine transporter (Rattus norvegicus, UniProt Q9WTR4)) for the entry `O[C@@H]1CO[C@H](C(c2ccccc2)c2ccccc2)C[C@H]1NCc1ccccc1`
6.53

Then what about the molecule `O[C@@H]1C[C@@H](C(c2ccccc2)c2ccccc2)OC[C@H]1NCCc1ccc(F)cc1` ?
6.39

* * *

Collected Ratio values appear next to each entry.
# assayed-system: Monoamine transporters; Norepinephrine & serotonin (Rattus norvegicus) (UniProt P31652+Q9WTR4)
# test-name: Ratio between Serotonin transporter and Norepinephrine transporter uptake
# Type: protein assay
Reply with the value as a number alone.

// solved cases for Ratio follow
{"molecule": "O[C@@H]1C[C@@H](C(c2ccccc2)c2ccccc2)OC[C@H]1NCc1ccc(F)cc1", "number": 50}
{"molecule": "OC1CC(C(c2ccccc2)c2ccccc2)OCC1NCCc1ccc(F)cc1 (single isomer, unassigned)", "number": 37}
{"molecule": "COc1ccc(CN[C@@H]2C[C@@H](C(c3ccccc3)c3ccccc3)OC[C@H]2O)cc1", "number": 1.2}

Field request: Ratio | item: `COc1cc(CN[C@@H]2CO[C@H](C(c3ccccc3)c3ccccc3)C[C@H]2O)cc(OC)c1`
0.2

* * *

Each entry below carries its reported IC50.
# assayed-system: Sodium-dependent dopamine transporter (Rattus norvegicus)
# test-name: Inhibition of rat brain Dopamine transporter uptake as [3H]DA accumulation
# Format: functional
Write the value in nM as a bare number.

Use the examples below as a reference point.
{"compound": "COc1ccc(CN[C@@H]2C[C@@H](C(c3ccccc3)c3ccccc3)OC[C@H]2O)cc1", "readout-type": "IC50", "measurement-unit": "nM", "number": 822}
{"compound": "O[C@@H]1CO[C@H](C(c2ccccc2)c2ccccc2)C[C@H]1NCc1ccccc1", "readout-type": "IC50", "measurement-unit": "nM", "number": 2610}
{"compound": "OC1COC(C(c2ccccc2)c2ccccc2)CC1NCc1ccccc1 (single isomer, unassigned)", "readout-type": "IC50", "measurement-unit": "nM", "number": 962}
{"compound": "OC1CC(C(c2ccccc2)c2ccccc2)OCC1NCc1ccc(F)cc1 (single isomer, unassigned)", "readout-type": "IC50", "measurement-unit": "nM", "number": 440}

I have this compound here, `O[C@@H]1C[C@@H](C(c2ccccc2)c2ccccc2)OC[C@H]1NCCc1ccc(F)cc1` , and I need its recorded IC50.
427

Same read-out for OC1CC(C(c2ccccc2)c2ccccc2)OCC1NCCc1ccc(F)cc1 (single isomer, unassigned) ?
218

Would you kindly repeat that for `COc1cc(CN[C@@H]2CO[C@H](C(c3ccccc3)c3ccccc3)C[C@H]2O)cc(OC)c1` ?
135

Then OC1CC(C(c2ccccc2)c2ccccc2)OCC1NCc1ccccc1 (single isomer, unassigned) ?
341

Query `COc1ccc(CN[C@@H]2CO[C@H](C(c3ccccc3)c3ccccc3)C[C@H]2O)c(OC)c1` next
710

* * *

# reported IC50; entries follow
# assayed-system: UniProt:P23977
# test-name: Inhibition of rat brain Dopamine transporter uptake as [3H]DA accumulation
# Assay type: functional
Answer format: numeric, nM implied, no suffix.

{"compound": "O[C@@H]1C[C@@H](C(c2ccccc2)c2ccccc2)OC[C@H]1NCc1ccc(F)cc1", "number": 169}

Recorded IC50 for COc1ccc(CNC2CC(C(c3ccccc3)c3ccccc3)OCC2O)cc1 (single isomer, unassigned) , please?
2670

Entry `O[C@@H]1C[C@@H](C(c2ccccc2)c2ccccc2)OC[C@H]1NCc1ccccc1` please
600
